Test system: HL-60
method_summary: cell viability (% survival relative to DMSO control); higher = less cytotoxic
experimental_parameters: 0.1 µM; 72 h; co-treatment: AZD3965 100 nM
Counter-ions that a name gives are not always drawn.
Each entry below carries its recorded cell viability.
Field format: number, assumed %, no unit text.

Solved entries:
CO[C@H]1C[C@@H]2CC[C@@H](C)[C@@](O)(O2)C(=O)C(=O)N2CCCC[C@H]2C(=O)O[C@H]([C@H](C)C[C@@H]2CC[C@@H](OCCO)[C@H](OC)C2)CC(=O)[C@H](C)/C=C(\C)[C@@H](O)[C@@H](OC)C(=O)[C@H](C)C[C@H](C)/C=C/C=C/C=C/1C: 97
CN1CCN(CCCN2c3ccccc3Sc3ccc(C(F)(F)F)cc32)CC1: 97.8

What cell viability value was documented for this compound, `COC(=O)c1cc2c(C(F)(F)F)cc(-c3ccccc3)cc2n1O` ? 103

Then `N#Cc1ccnc(N2C(=O)CC[C@H]2C(=O)N(c2cncc(F)c2)[C@H](C(=O)NC2CC(F)(F)C2)c2ccccc2Cl)c1` ? 113

Then O=C([O-])CC(O)(C(=O)[O-])C(O)C(=O)[O-].[K+].[K+].[K+] (stereo unspecified) [Hydroxycitrate] ? 100

Then Cc1cc(CS(=O)(=O)c2ccccc2)cc(OCc2ccc(CN3CCC[C@@H]3CO)cc2)c1 [PF 543 hydrochloride] ? 100

====

Test system: K-562
experimental_parameters: 72 h
endpoint_name: IC50 (cell viability)

CCN(CC)C(=S)SSC(=S)N(CC)CC: 0.447 µM

What IC50 (cell viability) value was documented for this compound, `CN1CCN(CCCN2c3ccccc3Sc3ccc(C(F)(F)F)cc32)CC1` ? 2.91 µM

Then `COC(=O)c1cc2c(C(F)(F)F)cc(-c3ccccc3)cc2n1O` ? > 10 µM

Then CCCCCCCC/C=C\CCCCCCCC(=O)Nc1ccccc1 [Octadec-9-Enoic Acid Phenylamide] ? > 10 µM

Then `C=CC(=O)c1ccc(O)cc1` ? > 10 µM

Then C[C@H]1c2cccc(O)c2C(=O)C2C(=O)[C@]3(O)C(=O)C(C(N)=O)C(=O)[C@@H](N(C)C)[C@@H]3[C@@H](O)[C@@H]21 (some centres undefined) ? 9.29 µM

====

Each entry below carries its recorded cell viability.
Test system: myeloid leukemia patient primary cells Pat.13
method_summary: cell viability (% survival relative to DMSO control); higher = less cytotoxic
experimental_parameters: 10 nM; 72 h
Field format: number, assumed %, no unit text.

Solved entries:
Cc1[nH]nc(C(F)(F)F)c1Cc1sc2c(c1C(=O)N1C[C@](C)(O)CO1)c(=O)n(C)c(=O)n2C(C)C: 69.2
CO[C@H]1C[C@@H]2CC[C@@H](C)[C@@](O)(O2)C(=O)C(=O)N2CCCC[C@H]2C(=O)O[C@H]([C@H](C)C[C@@H]2CC[C@@H](OCCO)[C@H](OC)C2)CC(=O)[C@H](C)/C=C(\C)[C@@H](O)[C@@H](OC)C(=O)[C@H](C)C[C@H](C)/C=C/C=C/C=C/1C: 82.6
c1cc(-c2cnn3cc(-c4ccc(OCCN5CCCCC5)cc4)cnc23)ccn1: 94.5

Next item in the queue.
What cell viability value was documented for this molecule, `CN1CCN(CCCN2c3ccccc3Sc3ccc(C(F)(F)F)cc32)CC1` ? 90.8

Recorded values, source the supplement of paper PMC8671470.
